Readings of Percent Effect for the listed molecules
Molecular target: Proteasome subunit beta (Trypanosoma cruzi) (UniProt O96673)
Sequence (whole entry): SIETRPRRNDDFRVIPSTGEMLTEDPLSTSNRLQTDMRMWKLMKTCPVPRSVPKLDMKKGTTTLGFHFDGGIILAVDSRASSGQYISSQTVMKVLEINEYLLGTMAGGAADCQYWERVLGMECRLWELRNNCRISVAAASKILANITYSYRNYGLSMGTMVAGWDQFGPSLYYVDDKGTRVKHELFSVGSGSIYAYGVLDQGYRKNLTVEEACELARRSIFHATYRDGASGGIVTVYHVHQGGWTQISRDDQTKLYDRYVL
Assay: Trypanosoma cruzi proteasome chymotrypsin-like activity (TcProtChymo) assay.
Type: functional
Set-up: scale not given: in the data most compounds retested in dose-response had high values
Conditions: 9.37 µM
Give the value, in units of %, as a plain number.

Take a look at these entries with their results.
Q) Given the entry CCN(CC1CCOC1)C(=O)Nc1ccc(N2CCCC2)nc1 (stereo unspecified) , report its measured Percent Effect.
A) 14.2

Q) Given the entry CCc1ccc(C(=O)N2CCCC(n3cncn3)C2)o1 (stereo unspecified) , report its measured Percent Effect.
A) 7.37

Q) Given the entry c1cc(CN2CCCC(c3noc(C4CC4)n3)C2)no1 (stereo unspecified) , report its measured Percent Effect.
A) 4.32

Q) Given the entry CN(Cc1ccc(Cl)s1)C1CCCN(c2cccnn2)C1 (stereo unspecified) , report its measured Percent Effect.
A) 7.19

Q) Given the entry CCCN1CCN(C(=O)c2cnccn2)[C@H]2CS(=O)(=O)C[C@H]21 , report its measured Percent Effect.
A) 2.93

Continuing:
Q) Given the entry Cc1cc(C)n(CC2CN(CC(=O)Nc3c(C)n[nH]c3C)CCO2)n1 (stereo unspecified) , report its measured Percent Effect.
A) 10.5

Q) Given the entry CN1[C@H](CN2CCCC2)C[C@@H]2CN(C(=O)c3cccn3C)CC[C@@H]21 , report its measured Percent Effect.
A) 0.944

Q) Given the entry Cc1noc(C)c1CCC(=O)N1CCCN(Cc2cscn2)CC1 , report its measured Percent Effect.
A) 21.1

Q) Given the entry CCC[C@@H]1CN(S(=O)(=O)c2ccc(C)c(F)c2)C[C@H]1N(C)C , report its measured Percent Effect.
A) 16.2

Q) Given the entry N#Cc1c(C2CC2)cc(-c2ccc(O)cc2)nc1N , report its measured Percent Effect.
A) 23.6

Q) Given the entry Cc1cc(C2CCCN2CCCc2nc3ccccc3o2)on1 (stereo unspecified) , report its measured Percent Effect.
A) 1.62
